- TARGET_UNDER_TEST: recombinant human GR (Homo sapiens, UniProt P04150)
- Sequence (P04150 1-777): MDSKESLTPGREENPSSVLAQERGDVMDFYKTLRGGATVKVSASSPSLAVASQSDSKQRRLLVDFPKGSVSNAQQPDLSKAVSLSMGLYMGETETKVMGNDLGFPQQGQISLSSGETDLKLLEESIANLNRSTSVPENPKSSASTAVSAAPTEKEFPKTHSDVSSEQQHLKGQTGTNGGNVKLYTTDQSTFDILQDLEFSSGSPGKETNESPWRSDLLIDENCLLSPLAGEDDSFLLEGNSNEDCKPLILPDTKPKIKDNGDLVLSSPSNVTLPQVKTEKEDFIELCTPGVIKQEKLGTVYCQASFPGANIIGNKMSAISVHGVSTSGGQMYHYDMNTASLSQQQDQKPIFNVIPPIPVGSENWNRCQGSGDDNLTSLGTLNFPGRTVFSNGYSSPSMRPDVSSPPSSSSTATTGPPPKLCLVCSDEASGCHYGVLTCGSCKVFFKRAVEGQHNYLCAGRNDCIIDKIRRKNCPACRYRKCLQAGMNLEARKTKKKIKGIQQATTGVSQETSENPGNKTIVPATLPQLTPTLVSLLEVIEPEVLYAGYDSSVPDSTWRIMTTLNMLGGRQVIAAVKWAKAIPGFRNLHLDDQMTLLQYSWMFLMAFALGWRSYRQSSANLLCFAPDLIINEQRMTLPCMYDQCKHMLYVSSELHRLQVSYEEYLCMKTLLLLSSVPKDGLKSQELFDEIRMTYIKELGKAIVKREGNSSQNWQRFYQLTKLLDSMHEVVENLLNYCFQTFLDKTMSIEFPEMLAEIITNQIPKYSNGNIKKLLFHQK
- TEST_METHOD_NOTES: Human Glucocorticoid Receptor (GR) Assay, fluorescence polarization
- EXPERIMENTAL_PARAMETERS: GS Red tracer, incubated 2 h at r.t., XLfit model 205, read-out: GRhuFL_FP_v2 Mean IC50
MEASURE: IC50 (nM)

These solved cases illustrate the format of a correct answer.
>>> print(df.to_string())
                            molecule_smiles                         target_under_test  endpoint_unit  observed_measurement
0  Cc1ccc([C@@H](Oc2ccc3c(cnn3-c3ccc(F)cc3)c2)[C@H](C)NC(=O)C(C)(C)C)c(C)c1  recombinant human GR (Homo sapiens, UniProt P04150)             nM                   4.9
1  CCC[C@H](NC(=O)C(C)(C)C)[C@H](Oc1ccc2c(cnn2-c2ccc(F)cc2)c1)c1cccc(OC)c1  recombinant human GR (Homo sapiens, UniProt P04150)             nM                   3.1

a. Cc1cc([C@@H](Oc2ccc3c(cnn3-c3ccc(F)cc3)c2)[C@H](C)NC(=O)C(C)(C)C)ccc1Cl
b. COc1ccc([C@@H](Oc2ccc3c(cnn3-c3ccc(F)cc3)c2)[C@H](C)NC(=O)C2(C)CC2)c(C)c1
QUERY: Looking at a and b , which one comes out lower in IC50 terms? // caller expects the label of the chosen entry
RESULT: a
(a: 5.9 nM, b: 25 nM)
